measured.target: WT/R232 STING protein (Homo sapiens, UniProt Q86WV6, H232R)
Sequence (Q86WV6 whole entry H232R): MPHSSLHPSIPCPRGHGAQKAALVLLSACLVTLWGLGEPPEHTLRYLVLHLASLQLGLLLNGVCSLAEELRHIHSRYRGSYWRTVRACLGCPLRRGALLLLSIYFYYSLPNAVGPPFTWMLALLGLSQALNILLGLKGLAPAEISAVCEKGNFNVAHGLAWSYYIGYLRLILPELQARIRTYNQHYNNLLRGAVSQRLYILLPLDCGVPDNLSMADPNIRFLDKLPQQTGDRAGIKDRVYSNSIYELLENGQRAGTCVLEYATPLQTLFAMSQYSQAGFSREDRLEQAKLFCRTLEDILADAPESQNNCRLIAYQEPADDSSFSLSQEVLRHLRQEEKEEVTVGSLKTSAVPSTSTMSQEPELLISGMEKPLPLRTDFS
assay.name: Luciferase reporter assay in HEK293T-hSTING-Luciferase cells (R232)
test.conditions: 20 hr stimulation, EC50 range
Excerpt: • a) Stable STING expressing cells—Stable HEK293T STING-expressing cell lines were generated using plasmids purchased from Invivogen, CA, USA, that contain STING cDNA cloned into the pUNO-1 vector under hEF1-HTLV promoter and containing the Blasticidin selection cassette. […]
pEC50: −log10 of the molar value.
experimental.endpoint: pEC50

Prompt line: Entry Cc1ccc(CNC(=O)c2ccc3c(c2)N(Cc2c(C)cccc2F)C(=O)C3(C)C)o1 has what pEC50?
Response line: ≥ 6.00
